Origin of the recorded values: patent US12590062B2

targetOfAssay: PD-1/PD-L1 interaction (Homo sapiens)
Construct: expressed in transfected cells; host or cells: CHO cells (aAPC-PD-L1) co-cultured with Jurkat cells overexpressing PD-1 and an NFAT-luciferase reporter
protocolNotes: PD-1/PD-L1 NFAT reporter co-culture assay
Assay type: cell-based
testParameters: Jurkat PD-1 NFAT-luciferase cells co-cultured with aAPC-PD-L1 CHO cells, 6 hrs at 37° C.; read-out: EC50 NFAT Luciferase
valueType: EC50 (µM)
Field: numeric (µM). Do not append units.

Recorded EC50 for `CNC(=O)c1cc(-c2cccc(-c3cccc(COc4cc(OCc5cncc(C#N)c5)c(CNC[C@@H](O)CC(=O)O)cc4Cl)c3C)c2C)ccc1OCCNCCO` , please?
0.429

Sample `Cc1c(-c2ccc(OCCNC[C@@H](O)CC(=O)O)cc2)cccc1-c1cccc2c1CC[C@@H]2Oc1nc(OCc2cccc(C#N)c2)c(CNC[C@@H](O)CC(=O)O)cc1Br` — what was its EC50?
0.139

// EC50 lookup, key: `COc1cc(-c2cccc(-c3cccc(COc4cc(OCc5cncc(C#N)c5)c(CNC[C@@H](O)CC(=O)O)cc4Cl)c3C)c2C)ccc1CN`
0.21

What measured EC50 goes with `Cc1c(COc2nc(OCc3cncc(C#N)c3)c(CNC[C@@H](O)CC(=O)O)cc2Br)cccc1-c1cccc(-c2ccc(OCCNC[C@@H](O)CC(=O)O)cc2)c1C` ?
0.084

Param item = `Cc1c(COc2nc(OCCC(=O)N(C)C)c(CNC[C@@H](O)CC(=O)O)cc2Br)cccc1-c1cccc(COc2nc(OCCC(=O)N(C)C)c(CNC[C@@H](O)CC(=O)O)cc2Br)c1C` ; retrieve measured EC50.
0.812

Sample `CNC(=O)C1CN(Cc2cc(Br)c(OCc3cccc(-c4cccc(COc5nc(OC)c(CN6CC(C(=O)NC)C6)cc5Br)c4C)c3C)nc2OC)C1` — what was its EC50?
0.758

###

Hi there, I'd appreciate the recorded EC50 for every entry that follows.
targetOfAssay: PD-1/PD-L1 interaction (Homo sapiens)
Construct: expressed in transfected cells; host or cells: CHO cells (aAPC-PD-L1) co-cultured with Jurkat cells overexpressing PD-1 and an NFAT-luciferase reporter
protocolNotes: PD-1/PD-L1 NFAT reporter co-culture assay
Format: cell-based
testParameters: Jurkat PD-1 NFAT-luciferase cells co-cultured with aAPC-PD-L1 CHO cells, 6 hrs at 37° C.; read-out: EC50 NFAT Luciferase
Could you give me the number in nM? Just the number is fine.

Given the compound COc1nc(-c2cccc(-c3cccc4c3CC[C@@H]4Oc3nc(OC)c(CN4CCC(C)(C(=O)O)C4)cc3Cl)c2Cl)ccc1CNC[C@@H]1CCC(=O)N1 (stereo partly drawn) [Example 763] , what is its reported EC50?
10

Which EC50 value belongs to CS(=O)(=O)c1cncc(COc2nc(O[C@H]3CCc4c(-c5cccc6c5CC[C@@H]6Oc5nc(OCc6cncc(S(C)(=O)=O)c6)c(CN6CC[C@@H](O)C6)cc5Cl)cccc43)c(Cl)cc2CN2CC[C@@H](O)C2)c1 [Example 689] ?
139

# input compound: Cc1c(COc2cc(OCc3cncc(C#N)c3)c(CN[C@@](C)(CO)C(=O)O)cc2Cl)cccc1-c1cccc(-c2ccc(OCCNC[C@H]3CCC(=O)N3)cc2)c1C [Example 518] ; wanted: its EC50
159

# lookup: EC50 of COc1nc(OCc2cccc(-c3cccc(COc4ccc(CNC[C@@H](C)O)c(OC)n4)c3C)c2C)ccc1CNC[C@@H](C)O [Example 24]
1890

What does the record list as EC50 for COC(=O)[C@@H](C)NCc1cc(Cl)c(OCc2cccc(-c3cccc(COc4nc(OC)c(CN[C@H](C)C(=O)OC)cc4Cl)c3C)c2C)nc1OC [Example 89] ?
670

Please give the measured EC50 for this compound: N#Cc1cc(C#N)cc(COc2nc(OCc3cccc(-c4cccc(-c5ccc(OCCNCCO)cc5)c4Cl)c3Cl)c(Cl)cc2CNC[C@@H](O)CC(=O)O)c1 [Example 351]
235

###

Could you please report measured EC50 for the items listed next?
targetOfAssay: PD-1/PD-L1 interaction (Homo sapiens)
Construct: expressed in transfected cells; host or cells: CHO cells (aAPC-PD-L1) co-cultured with Jurkat cells overexpressing PD-1 and an NFAT-luciferase reporter
protocolNotes: PD-1/PD-L1 NFAT reporter co-culture assay
Type: cell-based
testParameters: Jurkat PD-1 NFAT-luciferase cells co-cultured with aAPC-PD-L1 CHO cells, 6 hrs at 37° C.; read-out: EC50 NFAT Luciferase
I only need the number, in nM, no unit after it.

EC50 for `COc1nc(O[C@H]2CCc3c(-c4cccc(-c5ccc(CNC[C@@H]6CCC(=O)N6)c(OCC#N)c5)c4Cl)cccc32)c(Cl)cc1CNC[C@@H]1CCC(=O)N1` ?
28

Fill blank: measured EC50 of the compound `Cc1c(COc2nc(OCc3cccnc3)c(CNC[C@@H](O)CC(=O)O)cc2Br)cccc1-c1cccc(COc2nc(OCc3cccnc3)c(CNC[C@@H](O)CC(=O)O)cc2Br)c1C` is ____.
1450

Suppose we examine the compound `COc1nc(/C=C/c2cccc(-c3cccc(/C=C/c4ccc(CNC[C@@H](O)CC(=O)O)c(OC)n4)c3C)c2C)ccc1CNC[C@@H](O)CC(=O)O` ; what EC50 value has been reported?
2120

###

targetOfAssay: PD-1/PD-L1 interaction (Homo sapiens, UniProt Q9NZQ7)
Construct: expressed in transfected cells; host or cells: CHO cells (aAPC-PD-L1) co-cultured with Jurkat cells overexpressing PD-1 and an NFAT-luciferase reporter
Sequence (Q9NZQ7 19-290): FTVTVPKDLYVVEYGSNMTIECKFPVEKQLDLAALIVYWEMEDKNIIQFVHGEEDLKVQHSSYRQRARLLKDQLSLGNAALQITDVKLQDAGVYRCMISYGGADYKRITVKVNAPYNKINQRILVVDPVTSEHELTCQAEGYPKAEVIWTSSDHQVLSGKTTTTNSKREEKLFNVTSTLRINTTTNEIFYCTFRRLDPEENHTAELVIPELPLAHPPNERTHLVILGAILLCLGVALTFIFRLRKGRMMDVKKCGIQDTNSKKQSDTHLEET
protocolNotes: PD-1/PD-L1 NFAT reporter co-culture assay
Assay type: cell-based
testParameters: Jurkat PD-1 NFAT-luciferase cells co-cultured with aAPC-PD-L1 CHO cells, 6 hrs at 37° C.; read-out: EC50 NFAT Luciferase
valueType: pEC50
Please note pEC50 is a logarithmic value: minus log10 of concentration in mol/L. Answer with that number alone.

Fill in: pEC50 of Cc1c(COc2cc(OCc3cncc(C#N)c3)c(CN[C@@](C)(CO)C(=O)O)cc2Cl)cccc1-c1cccc(-c2ccc(CNCC3CCC(=O)N3)cc2)c1C (stereo partly drawn) [Example 323] is ___
6.77

# get_value(readout='pEC50', item= COc1ccc(-c2cccc(-c3cccc(COc4cc(OCc5cncc(C#N)c5)c(CN[C@@](C)(CO)C(=O)O)cc4Cl)c3C)c2C)cc1CNCC1CCC(=O)N1 (stereo partly drawn) [Example 509] )
7.05

Look at this compound and give its reported pEC50. CCOC(=O)[C@@H]1CCCCN1Cc1cc(Br)c(O[C@H]2CCc3c(-c4cccc(-c5ccc(C6=NCCN6)c(OC)n5)c4Cl)cccc32)nc1OC [Example 776]
5.84

###

Please go through the items and note down their pEC50.
targetOfAssay: PD-1/PD-L1 interaction (Homo sapiens)
Construct: expressed in transfected cells; host or cells: CHO cells (aAPC-PD-L1) co-cultured with Jurkat cells overexpressing PD-1 and an NFAT-luciferase reporter
protocolNotes: PD-1/PD-L1 NFAT reporter co-culture assay
Type: cell-based
testParameters: Jurkat PD-1 NFAT-luciferase cells co-cultured with aAPC-PD-L1 CHO cells, 6 hrs at 37° C.; read-out: EC50 NFAT Luciferase
On this scale, pEC50 is minus log10 of a concentration expressed in M (mol/L).

Report pEC50 for Cc1c(COc2cc(OCc3cncc(C#N)c3)c(CN[C@@H](C)C(=O)O)cc2Cl)cccc1-c1cccc(-c2ccc(OCCN[C@@H](C)C(=O)O)c(C(F)(F)F)c2)c1C [Example 95] please.
6.19

Which pEC50 is reported for this compound? Cc1c(COc2cc(OCc3cncc(C#N)c3)c(CNC[C@@H](O)CC(=O)O)cc2Br)cccc1-c1cccc(COc2cc(OCc3cncc(C#N)c3)c(CNC[C@@H](O)CC(=O)O)cc2Br)c1C [Example 33]
6.49

Which value of pEC50 has been reported for COc1nc(O[C@H]2CCc3c(-c4cccc(-c5ccc(C6=NCCN6)c(OC)n5)c4Cl)cccc32)c(Br)cc1CNC[C@@H]1CCC(=O)N1 [Example 779] in the records?
7.17

Look up pEC50 for this compound: COc1nc(OCc2cccc(-c3cccc(COc4nc(OC)c(CNCc5nnn[nH]5)cc4Cl)c3C)c2C)c(Cl)cc1CNCc1nnn[nH]1 [Example 169]
6.65

Param item = Cc1c(COc2cc(OCc3cncc(C#N)c3)c(CN[C@@](C)(CO)C(=O)O)cc2Cl)cccc1-c1cccc(-c2ccc(C3=NCCN3)cc2)c1C [Example 503] ; retrieve measured pEC50.
7.09

Suppose we examine the compound COc1nc(O[C@H]2CCc3c(-c4cccc(-c5ccc(CNC[C@@H]6CCC(=O)N6)c(OC(F)F)c5)c4Cl)cccc32)c(Cl)cc1CNC[C@@H]1CCC(=O)N1 [Example 657] ; what pEC50 value has been reported?
6.71
